- experiment: Cytotoxicity against African green monkey Vero cells assessed as reduction in cell viability incubated for 72 hrs by MTT assay
- Type: toxicity, cell-based
- assay conditions: chlorocebus sabaeus
reported endpoint: CC50 at 72 h (µM)
Hi! Could you send only the number? It should be in µM, unit omitted.

Look over these answered cases.
{"molecule": "CC(C)CC(CN1CCCC1)N(C)c1ccnc2cc(Cl)ccc12 (stereo not drawn)", "experimental result": 47}
{"molecule": "CCN(CC)CC(CC(C)C)N(C)c1ccnc2cc(Cl)ccc12 (stereo not drawn)", "experimental result": 60.3}
{"molecule": "CN(CCCN1CCCC1)c1ccnc2cc(Cl)ccc12", "experimental result": 80.2}

Record summary for CCN(CC)CC(CC(C)C)N(C)c1ccnc2cc(C(F)(F)F)ccc12 (stereo not drawn) : reported CC50 at 72 h = 52

Record summary for CC(C)CC(CN1CCOCC1)N(C)c1ccnc2cc(C(F)(F)F)ccc12 (stereo not drawn) : reported CC50 at 72 h = 68.6

Record summary for `CN(CCCN1CCCCC1)c1ccnc2cc(Cl)ccc12` : reported CC50 at 72 h = 107

Record summary for CN(c1ccnc2cc(Cl)ccc12)C(Cc1ccccc1)CN1CCCCC1 (stereo not drawn) : reported CC50 at 72 h = 69.7

Record summary for CCN(CC)CC(Cc1ccccc1)N(C)c1ccnc2cc(Cl)ccc12 (stereo not drawn) : reported CC50 at 72 h = 79

###

- experiment: Cytotoxicity against African green monkey Vero cells assessed as reduction in cell viability incubated for 24 hrs by MTT assay
- Type: toxicity, cell-based
- assay conditions: African green monkey (Chlorocebus sabaeus)
Examples of compounds with documented IC50 at 24 h follow.

{"molecule smiles": "O=C(CN1C(=O)c2ccc(F)cc2C1=O)NCCCCNc1ccnc2cc(Cl)ccc12", "experimental result": "> 220 µM"}
{"molecule smiles": "O=C(CN1C(=O)c2ccc(F)cc2C1=O)NCCNc1cccc2cc(Cl)ccc12", "experimental result": "> 235 µM"}

Let us move to another entry and its IC50 at 24 h.
Record summary for `O=C(CN1C(=O)c2ccc(N3CCN(CCO)CC3)cc2C1=O)NCCCCCCNc1ccnc2cc(Cl)ccc12` : reported IC50 at 24 h = > 169 µM

###

- experiment: Cytotoxicity against African green monkey Vero cells assessed as reduction in cell viability incubated for 24 hrs by fluorescence based analysis
- Format: toxicity
- assay conditions: African green monkey (Chlorocebus sabaeus)
reported endpoint: IC50 at 24 h (µM)
Hi! Could you send only the number? It should be in µM, unit omitted.

{"molecule smiles": "O=C1c2cccc(N3CCCCC3)c2C(=O)N1CCNc1ccnc2cc(Cl)ccc12", "units label": "µM", "IC50 at 24 h": 28.8}

Record summary for `O=C1c2ccc(N3CCCCC3)cc2C(=O)N1CCCCCCNc1ccnc2cc(Cl)ccc12` : reported IC50 at 24 h = 25.5

Record summary for `O=C1c2ccc(N3CCN(CCO)CC3)cc2C(=O)N1CCCNc1ccnc2cc(Cl)ccc12` : reported IC50 at 24 h = 25.3

Record summary for `O=C1c2cccc(N3CCOCC3)c2C(=O)N1CCCNc1ccnc2cc(Cl)ccc12` : reported IC50 at 24 h = 222

###

Examples of compounds with documented CC50 at 72 h follow.
- experiment: Cytotoxicity against African monkey Vero cells assessed as reduction in cell viability incubated for 72 hrs by MTT assay
- Format: toxicity, cell-based
- assay conditions: chlorocebus sabaeus
Hi! Could you send only the number? It should be in µM, unit omitted.

{"molecule smiles": "O=Cc1ccc(OCc2cn(CC(=O)NCCCNc3ccnc4cc(Cl)ccc34)nn2)cc1", "units label": "µM", "CC50 at 72 h": 12.2}
{"molecule smiles": "O=C(Cn1cc(COc2ccccc2)nn1)NCCCNc1ccnc2cc(Cl)ccc12", "units label": "µM", "CC50 at 72 h": 40.6}
{"molecule smiles": "O=C(Cn1cc(-c2ccccc2)nn1)NCCCNc1ccnc2cc(Cl)ccc12", "units label": "µM", "CC50 at 72 h": 41.5}

Let us move to another entry and its CC50 at 72 h.
Record summary for `O=C(Cn1cc(COc2ccc(Cl)cc2)nn1)NCCCNc1ccnc2cc(Cl)ccc12` : reported CC50 at 72 h = 27.1

###

- experiment: Cytotoxicity against African green monkey Vero cells assessed as reduction in cell viability incubated for 24 hrs by MTT assay
- Format: toxicity, cell-based
- assay conditions: African green monkey (Chlorocebus sabaeus)
Examples of molecules with documented IC50 at 24 h follow.

{"molecule smiles": "O=C(CCCN1C(=O)c2ccccc2C1=O)NCCCCCCCCNc1ccnc2cc(Cl)ccc12", "IC50 at 24 h": "102 µM"}

Record summary for `O=C(CCN1C(=O)c2ccc(N3CCOCC3)cc2C1=O)NCCNc1ccnc2cc(Cl)ccc12` : reported IC50 at 24 h = 26.5 µM

Record summary for `O=C(CCCN1C(=O)c2ccccc2C1=O)NCCCCCCNc1ccnc2cc(Cl)ccc12` : reported IC50 at 24 h = > 203 µM

Record summary for `O=C(CCN1C(=O)c2ccc(F)cc2C1=O)NCCNc1ccnc2cc(Cl)ccc12` : reported IC50 at 24 h = 93.2 µM

Record summary for `O=C(CCN1C(=O)c2ccc(N3CCN(CCO)CC3)cc2C1=O)NCCCCCCNc1ccnc2cc(Cl)ccc12` : reported IC50 at 24 h = > 165 µM

###

- Test system: Plasmodium falciparum
- experiment: Antiplasmodial activity against Plasmodium falciparum K1
- Type: functional, organism-based
reported endpoint: IC50 (nM)
Hi! Could you send only the number? It should be in nM, unit omitted.

Look over these answered cases.
{"molecule smiles": "C=C[C@H]1CN2CC[C@H]1C[C@H]2[C@H](O)c1ccnc2ccc(OC)cc12", "IC50 / nM": 830}
{"molecule smiles": "O=[N+]([O-])c1ccc(NNc2ccnc3cc(Cl)ccc23)cc1", "IC50 / nM": 3260}
{"molecule smiles": "Cc1ccc(C(=O)NNc2ccnc3cc(Cl)ccc23)cc1", "IC50 / nM": 920}

Per the reported Plasmodium falciparum data, `O=[N+]([O-])c1ccc(Nc2ccnc3cc(Cl)ccc23)cc1` has IC50 of 5510

###

Examples of compounds with documented pIC50 follow.
- System: Plasmodium falciparum
- experiment: Antiplasmodial activity against Plasmodium falciparum 3D7 assessed as growth inhibition measured after 72 hrs by SYBR green dye based assay
- Type: functional, organism-based
- assay conditions: 3D7, 72 h
The value called pIC50 is obtained by taking minus log10 of the concentration in mol/L.

{"compound": "CCOC(=O)N1CCN(CCNc2ccnc3cc(Cl)ccc23)CC1", "pIC50": 6.05}

Record summary for CC(C)CC(CN1CCN(Cc2ccc3c(c2)OCO3)CC1)Nc1ccnc2cc(Cl)ccc12 (stereo not drawn) : reported pIC50 = 6.68

Record summary for CCOC(=O)N1CCN(CC(CC(C)C)Nc2ccnc3cc(Cl)ccc23)CC1 (stereo not drawn) : reported pIC50 = 6.07

Record summary for CC(CN1CCN(Cc2ccc3c(c2)OCO3)CC1)Nc1ccnc2cc(Cl)ccc12 (stereo not drawn) : reported pIC50 = 6.97

Record summary for CCN1CCN(CC(C)Nc2ccnc3cc(Cl)ccc23)CC1 (stereo not drawn) : reported pIC50 = 6.90

Record summary for `Clc1ccc2c(NCCN3CCN(Cc4ccc5c(c4)OCO5)CC3)ccnc2c1` : reported pIC50 = 6.28

Record summary for CCN1CCN(CC(CC(C)C)Nc2ccnc3cc(C(F)(F)F)ccc23)CC1 (stereo not drawn) : reported pIC50 = 7.61

Record summary for `Clc1ccc2c(NCCN3CCN(c4ncccn4)CC3)ccnc2c1` : reported pIC50 = 6.97

###

Examples of compounds with documented IC50 follow.
- System: Plasmodium falciparum
- experiment: Antiplasmodial activity against Plasmodium falciparum K1 assessed as growth inhibition measured after 72 hrs by SYBR green dye based assay
- Assay type: functional, organism-based
- assay conditions: K1, 72 h

Look over these answered cases.
{"compound": "CSCCC(CN1CCN(c2ccccc2)CC1)Nc1ccnc2cc(Cl)ccc12 (centres undefined)", "IC50": "> 5000 nM"}
{"compound": "CC(C)CC(CN1CCN(c2ccccc2)CC1)Nc1ccnc2cc(Cl)ccc12 (centres undefined)", "IC50": "> 1000 nM"}
{"compound": "CC(C)CC(CN1CCN(Cc2ccccc2)CC1)Nc1ccnc2cc(Cl)ccc12 (centres undefined)", "IC50": "> 1000 nM"}

Per the reported Plasmodium falciparum data, Clc1ccc2c(NC(Cc3ccccc3)CN3CCN(Cc4ccccc4)CC3)ccnc2c1 (centres undefined) has IC50 of > 5000 nM

###

- experiment: Cytotoxicity against African green monkey Vero cells assessed as reduction in cell viability incubated for 24 hrs by fluorescence based analysis
- Format: toxicity
- assay conditions: African green monkey (Chlorocebus sabaeus)
Examples of compounds with documented IC50 at 24 h follow.
Hi! Could you send only the number? It should be in µM, unit omitted.

{"molecule smiles": "O=C1c2ccc(N3CCN(CCO)CC3)cc2C(=O)N1CCCCCCNc1ccnc2cc(Cl)ccc12", "IC50 at 24 h / µM": 23.3}
{"molecule smiles": "O=C1c2cccc(N3CCCCC3)c2C(=O)N1CCCCNc1ccnc2cc(Cl)ccc12", "IC50 at 24 h / µM": 54.1}

Let us move to another entry and its IC50 at 24 h.
Record summary for `O=C1c2ccc(N3CCOCC3)cc2C(=O)N1CCCNc1ccnc2cc(Cl)ccc12` : reported IC50 at 24 h = 222
